The reported measurements were obtained from the supplement of paper PMC6965134.

Measurement protocol: TIMS collisional cross section (CCS, N2) of the lipid ion; higher = larger ion cross section
Conditions used: sample type: plasma; ionization mode: positive; one isomer drawn
Reported property: TIMS collisional cross section (Å²)

CCCCC/C=C\C/C=C\CCCCCCCC(=O)O[C@H](COC(=O)CCCCCCC/C=C\CCCCCCCC)COC(=O)CCCCCCCCCCC/C=C\CCCCCCCC [TG 18:1_18:2_22:1] (ion (formula + adduct): [C61H110O6+NH4] 1+): 335
CCCCCCCCCCCCCCCCCC(=O)OC[C@@H](COC(=O)CCCCCCCCCCCCCCC)OC(=O)CCCCCCCCCCCCCCCCC [TG 16:0_18:0_18:0] (ion (formula + adduct): [C55H106O6+NH4] 1+): 326.7
CCCCCCCCCCCCCCCCCC(=O)OC[C@@H](O)COP(=O)(O)OCCN [LPE 18:0] (ion (formula + adduct): [C23H48NO7P+H] 1+): 221.8
CCCCCCCC/C=C\CCCCCCCC(=O)OC[C@H](COC(=O)CCCCCCCCCCCCCCCCCCCCC)OC(=O)CCCCCCCCCCCCCCCCCCC [TG 18:1_20:0_22:0] (ion (formula + adduct): [C63H120O6+NH4] 1+): 347.4
CC/C=C\C/C=C\C/C=C\C/C=C\C/C=C\CCCC(=O)O[C@@H](CO)COC(=O)CCCCCCC/C=C\CCCCCCCC [DG 18:1_20:5_0:0] (ion (formula + adduct): [C41H68O5+H] 1+): 271.1

====

Measurement protocol: TIMS collisional cross section (CCS, N2) of the lipid ion; higher = larger ion cross section
Conditions used: sample type: HeLa; ionization mode: positive; one isomer drawn
Reported property: TIMS collisional cross section (Å²)

P. CCCCCCCCCCCCCCCC(=O)OC[C@@H](O)COP(=O)(O)OCCN [LPE 16:0_0:0] (ion (formula + adduct): [C21H44NO7P+H] 1+)
Q. CC/C=C\C/C=C\C/C=C\C/C=C\C/C=C\CCCCCC(=O)OC[C@@H](COC(=O)CCCCCCCCCCCCC)OC(=O)CCCCCCCCCCCCCCC [TG 14:0_16:0_22:5] (ion (formula + adduct): [C55H96O6+NH4] 1+)
(Q) Looking only at measured TIMS collisional cross section, which entry is lower, P or Q ? // respond with label for picked entry
(A) P

====

Measurement protocol: TIMS collisional cross section (CCS, N2) of the lipid ion; higher = larger ion cross section
Conditions used: sample type: Liver; ionization mode: positive; one isomer drawn
Reported property: TIMS collisional cross section (Å²)

CCCCCCCC/C=C\CCCCCCCC(=O)OC[C@@H](COC(=O)CCCCCCCCCCCCC)OC(=O)CCCCCCCCCCCCC [TG 14:0_14:0_18:1] (ion (formula + adduct): [C49H92O6+NH4] 1+): 305.9
CCCCCCCCCCCCCCCC(=O)OC[C@@H](O)COP(=O)([O-])OCC[N+](C)(C)C [LPC 16:0_0:0] (ion (formula + adduct): [C24H50NO7P+H] 1+): 230.6
CCCCCCCC/C=C\CCCCCCCC(=O)OC[C@@H](O)COP(=O)(O)OCCN [LPE 18:1] (ion (formula + adduct): [C23H46NO7P+H] 1+): 217

====

Measurement protocol: TIMS collisional cross section (CCS, N2) of the lipid ion; higher = larger ion cross section
Conditions used: sample type: plasma; ionization mode: positive; one isomer drawn
Reported property: TIMS collisional cross section (Å²)

CCCCCCCC/C=C\CCCCCCCCCCCCCC(=O)N[C@@H](COP(=O)([O-])OCC[N+](C)(C)C)[C@H](O)/C=C/CCCCCCCCCCCCC [SM d18:1_24:1@] (ion (formula + adduct): [C47H93N2O6P+H] 1+): 305.5
CC/C=C\C/C=C\C/C=C\C/C=C\C/C=C\C/C=C\CCC(=O)O[C@H](COC(=O)CCCCCCCCC/C=C\CCCCCC)COP(=O)([O-])OCC[N+](C)(C)C [PC 18:1_22:6@] (ion (formula + adduct): [C48H82NO8P+H] 1+): 296.5
CCCCCCC/C=C\CCCCCCCC(=O)O[C@@H](COC(=O)CCCCCCC/C=C\CCCCCCCC)COC(=O)CCCCCCCCCCCCCCCC [TG 17:0_17:1_18:1] (ion (formula + adduct): [C55H102O6+NH4] 1+): 322.7
CCCCCCCCCCCCCCCC(=O)OC[C@H](COP(=O)([O-])OCC[N+](C)(C)C)OC(=O)CCCC=O [Oxidized PC 16:0_5:0@] (ion (formula + adduct): [C29H56NO9P+H] 1+): 245.55
CC/C=C\C/C=C\C/C=C\C/C=C\C/C=C\CCCC(=O)OC[C@@H](O)COP(=O)([O-])OCC[N+](C)(C)C [LPC 20:5_0:0] (ion (formula + adduct): [C28H48NO7P+H] 1+): 226.4
CCCCC/C=C\C/C=C\CCCCCCCCCC(=O)OC[C@@H](COC(=O)CCCCCCCCCCCCCCCC)OC(=O)CCCCCCC/C=C\CCCCCCCC [TG 17:0_18:1_20:2] (ion (formula + adduct): [C58H106O6+NH4] 1+): 329.3
CCCCC/C=C\C/C=C\C/C=C\C/C=C\CCCC(=O)O[C@H](COC(=O)CCCCCCCCCCCCC)COP(=O)([O-])OCC[N+](C)(C)C [PC 14:0@_20:4] (ion (formula + adduct): [C42H76NO8P+H] 1+): 282
CCCCC/C=C\C/C=C\C/C=C\C/C=C\CCCCCC(=O)OC[C@@H](COC(=O)CCCCCCC/C=C\CCCCCCCC)OC(=O)CCCCCCC/C=C\CCCCCCCC [TG 18:1_18:1_22:4] (ion (formula + adduct): [C61H106O6+NH4] 1+): 333.8
CCCCC/C=C\C/C=C\CCCCCCCC(=O)OC[C@@H](COC(=O)CCCCCCC/C=C\CCCCCC)OC(=O)CCCCCCC/C=C\CCCCCC [TG 16:1_16:1_18:2] (ion (formula + adduct): [C53H94O6+NH4] 1+): 311.2
